Provenance of the data: patent US20150086555A1

Biological target: recombinant soluble homotrimeric HA, A/Solomon Islands/3/06 H1N1 (Influenza A virus A/Solomon Islands/3/2006(H1N1))
Assay: microarray, transfection SN IgG, trimeric HA
Conditions: remark: other sources report otherwise
measured_property: Trimeric HA Binding: RLU (RLU)
Supply the numeric figure in RLU, leaving out any unit text.

TCN-553 (5261_C18) (antibody, V domains shown) VH: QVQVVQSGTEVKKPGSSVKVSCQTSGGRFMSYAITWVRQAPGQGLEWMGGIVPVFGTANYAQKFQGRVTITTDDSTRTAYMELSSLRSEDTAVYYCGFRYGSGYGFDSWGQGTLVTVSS VL: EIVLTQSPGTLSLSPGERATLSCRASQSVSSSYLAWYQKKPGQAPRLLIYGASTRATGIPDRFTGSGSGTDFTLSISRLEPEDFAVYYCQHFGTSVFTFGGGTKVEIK :: 49600
TCN-547 (5092_F11) (antibody, V domains shown) VH: QVQLQESGPGLVKPSQTLSLTCTVSGDSISSVDHYWSWIRQHPVKGLEWIGFMYYSASTYYNPSLKSRVTISTDTSKNQFSLRLSSVTAADTAVYYCARGTCAGDCSLHYYYYGLDVWGQGRTVTVSS VL: DIQMTQSPSSLSASVGDRVTITCRASQSISSYLNWYQHKPGKAPKVLMYAVSILQSGVPSRFSGSGSGADFTLTISSLQPEDFATYYCQQSYSSPLTFGGGTKVEIK :: 1080

Given the binder TCN-504 (3251_K17) (antibody, V domains shown) VH: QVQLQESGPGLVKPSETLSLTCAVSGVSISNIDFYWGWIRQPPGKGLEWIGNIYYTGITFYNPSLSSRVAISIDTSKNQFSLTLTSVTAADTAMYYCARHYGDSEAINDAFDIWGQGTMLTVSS VL: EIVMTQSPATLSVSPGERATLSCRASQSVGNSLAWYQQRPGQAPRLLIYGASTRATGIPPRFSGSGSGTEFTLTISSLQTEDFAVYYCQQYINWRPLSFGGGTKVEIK , what is its reported Trimeric HA Binding: RLU? 30100
